Provide the recorded pKi for the entries that follow.
- TARGET_OF_ASSAY: M₃ receptors (Oryctolagus cuniculus, UniProt G1U308)
- Construct: M₃ receptors in rabbit iris + ciliary body; from tissue; host or cells: rabbit iris + ciliary body (minus ciliary processes)
- Sequence (G1U308 1-599): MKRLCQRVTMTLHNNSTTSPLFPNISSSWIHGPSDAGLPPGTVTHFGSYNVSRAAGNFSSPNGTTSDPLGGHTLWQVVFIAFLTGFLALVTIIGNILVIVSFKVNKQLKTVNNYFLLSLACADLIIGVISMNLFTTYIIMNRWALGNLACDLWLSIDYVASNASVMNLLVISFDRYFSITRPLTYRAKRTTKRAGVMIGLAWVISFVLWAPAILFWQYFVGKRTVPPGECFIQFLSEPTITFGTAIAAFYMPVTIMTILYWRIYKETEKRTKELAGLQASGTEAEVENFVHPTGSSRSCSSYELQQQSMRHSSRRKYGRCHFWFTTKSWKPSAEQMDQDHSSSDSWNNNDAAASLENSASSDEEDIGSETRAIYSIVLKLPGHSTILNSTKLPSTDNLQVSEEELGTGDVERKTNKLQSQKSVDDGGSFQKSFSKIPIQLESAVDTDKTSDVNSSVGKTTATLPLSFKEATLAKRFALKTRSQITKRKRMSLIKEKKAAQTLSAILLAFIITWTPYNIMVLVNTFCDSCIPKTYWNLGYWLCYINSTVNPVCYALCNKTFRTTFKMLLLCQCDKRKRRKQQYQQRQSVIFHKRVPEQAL
- PROCEDURE_TEXT: ³H-QNB radioligand binding assay, rabbit iris + ciliary body (minus ciliary processes)
- TEST_CONTEXT: ³H-QNB binding, rabbit iris + ciliary body (minus ciliary processes); mean of 3-7 determinations ± SEM; read-out: M3 Ki
Please note pKi is a logarithmic value: minus log10 of concentration in mol/L. Answer with that number alone.

[in] Any idea what pKi was measured for CN1CCCC(C(=O)N2c3ccccc3C(=O)Nc3cccnc32)C1 (centres unmarked) [Rispenzepine] ?
[out] 7.41

[in] # input compound: CN1CCC(C(=O)N2c3ccccc3C(=O)Nc3cccnc32)CC1 [Nuvenzepine] ; wanted: its pKi
[out] 7.53

###

- TARGET_OF_ASSAY: M₃ receptors (Oryctolagus cuniculus, UniProt G1U308)
- Construct: M₃ receptors in rabbit iris + ciliary body; from tissue; host or cells: rabbit iris + ciliary body (minus ciliary processes)
- PROCEDURE_TEXT: ³H-QNB radioligand binding assay, rabbit iris + ciliary body (minus ciliary processes)
EXPERIMENTAL_ENDPOINT: Ki (nM)
Response body: numeric value in nM, unit text excluded.

[in] Field: Ki (M₃ receptors (Oryctolagus cuniculus, UniProt G1U308)). Entry: CN1[C@@H]2CC[C@H]1C[C@@H](OC(=O)C(CO)c1ccccc1)C2 (stereo partly shown) [Atropine, reference compound]
[out] 0.37
